- assay.overview: Permeability of compound across apical to basolateral side in human Caco2 cells
- Format: ADME, cell-based
- study.conditions: Caco-2, read-out: permeability
measured.endpoint: Papp A→B (×10⁻⁶ cm/s)
Numeric only. Scale: ×10⁻⁶ cm/s

Worked cases, answers included:
INSERT INTO assay_data (molecule, observed_value) VALUES
  ('CCC(C)(NC(=O)c1cc(F)cc2cc(-c3ccc(Cl)cc3)oc12)C(=O)O (stereo not drawn)', 8.5),
  ('O=C(NC1(C(=O)O)CCC1)c1cc(F)cc2cc(-c3ccc(C(F)(F)F)cc3)oc12', 18.4);

Query: Supply reported Papp A→B belonging to this molecule: CC(C)(NC(=O)c1cc(F)cc2cc(-c3ccc(Cl)cc3)oc12)C(=O)O
Result: 10.8
